Biological target: T1, human serum albumin (human, UniProt P02768 25-609)
T1 construct: Negative control antigen of the screening ELISA; also called HSA
T1 sequence (P02768 25-609 limits assumed): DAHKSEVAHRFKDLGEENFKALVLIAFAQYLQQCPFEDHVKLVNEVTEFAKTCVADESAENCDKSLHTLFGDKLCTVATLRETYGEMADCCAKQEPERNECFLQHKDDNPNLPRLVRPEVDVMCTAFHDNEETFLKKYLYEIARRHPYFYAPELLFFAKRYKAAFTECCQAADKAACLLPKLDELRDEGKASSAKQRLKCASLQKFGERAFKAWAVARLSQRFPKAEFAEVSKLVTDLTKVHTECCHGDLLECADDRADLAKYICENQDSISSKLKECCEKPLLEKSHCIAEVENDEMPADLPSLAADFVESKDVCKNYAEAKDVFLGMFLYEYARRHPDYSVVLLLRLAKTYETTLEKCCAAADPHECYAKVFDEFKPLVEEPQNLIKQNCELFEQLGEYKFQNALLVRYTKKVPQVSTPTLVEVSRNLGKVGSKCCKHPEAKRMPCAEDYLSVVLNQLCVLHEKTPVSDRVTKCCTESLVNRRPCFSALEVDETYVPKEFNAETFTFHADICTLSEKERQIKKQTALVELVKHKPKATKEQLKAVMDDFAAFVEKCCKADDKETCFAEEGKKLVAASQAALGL
Assay: ELISA, bacterial lysate on plate-bound antigen, luminescence
measurement_type: ELISA HSA (RLU)

INSERT INTO measurements (binder, measurement_type, uom, numeric_readout) VALUES
  ('ISOP120ER5P1E10 (designed binder, not shown: small tags and cut ends, FN3 domain (Centyrin); tested as E. coli lysate) LPAPKNLVVSRVTEDSARLSWTAPDAAFDSFEIYYMEDFHSGEAIVLTVPGSERSYDLTGLKPGTEYWVTIYGVEGGTGSLPLSAIFTT', 'ELISA HSA (RLU)', 'RLU', 400),
  ('ISOP120GR5P1H6 (designed binder, not shown: small tags and cut ends, FN3 domain (Centyrin); tested as E. coli lysate) LPAPKNLVVSRVTEDSARLSWTNEQITKYGFDSFLIQYQESEKVGEAIVLTVPGSERSYDLTGLKPGTEYTVSIYGVGRHYTVYDSNPLSAIFTT', 'ELISA HSA (RLU)', 'RLU', 400);
